# System: Plasmodium falciparum
# experiment notes: Antimalarial activity against mefloquine-resistant Plasmodium falciparum TM91C235 assessed as [3H]hypoxanthine incorporation after 48 hrs
# Assay type: functional, organism-based
# TRUE = IC50 below 60 nM (exclusive); FALSE = IC50 at/above 60 nM

Recorded results for 6 compounds are shown here.
# structure as smiles, qualitative label
measured = [
    ("CC[C@H]1OC(=O)[C@H](C)[C@@H](O[C@H]2C[C@@](C)(OC)[C@@H](O)[C@H](C)O2)[C@H](C)[C@@H](O[C@@H]2O[C@H](C)C[C@H](N(C)C)[C@H]2O)[C@](C)(O)C[C@@H](C)CN(CCCNCc2ccccn2)[C@H](C)[C@@H](O)[C@]1(C)O", "FALSE"),
    ("CC[C@H]1OC(=O)[C@H](C)[C@@H](O[C@H]2C[C@@](C)(OC)[C@@H](O)[C@H](C)O2)[C@H](C)[C@@H](O[C@@H]2O[C@H](C)C[C@H](N(C)C)[C@H]2O)[C@](C)(O)C[C@@H](C)CN(CCC(=O)N[C@H](C)c2cccc3ccccc23)[C@H](C)[C@@H](O)[C@]1(C)O", "FALSE"),
    ("CC[C@H]1OC(=O)[C@H](C)[C@@H](O)[C@H](C)[C@@H](O[C@@H]2O[C@H](C)C[C@H](N(C)C)[C@H]2O)[C@](C)(O)C[C@@H](C)CN(CCCNCc2cnc3ccccc3c2)[C@H](C)[C@@H](O)[C@]1(C)O", "FALSE"),
    ("CC[C@H]1OC(=O)[C@H](C)[C@@H](O)[C@H](C)[C@@H](O[C@@H]2O[C@H](C)C[C@H](N(C)C)[C@H]2O)[C@](C)(O)C[C@@H](C)CN(CCCNc2ccnc3cc(Cl)ccc23)[C@H](C)[C@@H](O)[C@]1(C)O", "TRUE"),
    ("CC[C@H]1OC(=O)[C@H](C)[C@@H](O[C@H]2C[C@@](C)(OC)[C@@H](O)[C@H](C)O2)[C@H](C)[C@@H](O[C@@H]2O[C@H](C)C[C@H](N(C)C)[C@H]2O)[C@](C)(O)C[C@@H](C)CN(CCCNC(=O)Cc2cccc3ccccc23)[C@H](C)[C@@H](O)[C@]1(C)O", "FALSE"),
    ("CC[C@H]1OC(=O)[C@H](C)[C@@H](O[C@H]2C[C@@](C)(OC)[C@@H](O)[C@H](C)O2)[C@H](C)[C@@H](O[C@@H]2O[C@H](C)C[C@H](N(C)C)[C@H]2O)[C@](C)(O)C[C@@H](C)CN(CCCNCCCCc2ccccc2)[C@H](C)[C@@H](O)[C@]1(C)O", "TRUE"),
]

Query: Strictly below 60 nM: is that where IC50 of CC[C@H]1OC(=O)[C@H](C)[C@@H](O)[C@H](C)[C@@H](O[C@@H]2O[C@H](C)C[C@H](N(C)C)[C@H]2O)[C@](C)(O)C[C@@H](C)CN(CCCNc2ccnc3ccccc23)[C@H](C)[C@@H](O)[C@]1(C)O sits?
Reply: FALSE

Query: Would you kindly verify if IC50 of CC[C@H]1OC(=O)[C@H](C)[C@@H](O[C@H]2C[C@@](C)(OC)[C@@H](O)[C@H](C)O2)[C@H](C)[C@@H](O[C@@H]2O[C@H](C)C[C@H](N(C)C)[C@H]2O)[C@](C)(O)C[C@@H](C)CN(CCCNCc2ccc3ccccc3n2)[C@H](C)[C@@H](O)[C@]1(C)O is strictly less than 60 nM?
Reply: FALSE

Data provenance: ChEMBL document CHEMBL2029228
